Quick record of IC50 values for hATX (Homo sapiens).
Provide only the numeric value, understood in µM.

>>> val("C[C@H](CCC(=O)O)[C@H]1CC[C@H]2[C@@H]3[C@@H](O)C[C@@H]4C[C@H](O)CC[C@]4(C)[C@H]3CC[C@]12C [UDCA, Ursodeoxycholic acid]")
8.8

Proceed to the following item.
For reference, reported IC50 for C[C@H](CCC(=O)NCC(=O)O)[C@H]1CC[C@H]2[C@@H]3[C@H](O)C[C@@H]4C[C@H](O)CC[C@]4(C)[C@H]3CC[C@]12C [GCDCA, Glycochenodeoxycholic acid] stands at 8.1

###

Quick record of IC50 values for hATX (Homo sapiens).

Field: example entries. Status: answers known.
>>> val("C[C@H](CCC(=O)NCCS(=O)(=O)O)[C@H]1CC[C@H]2[C@@H]3CC[C@@H]4C[C@H](O)CC[C@]4(C)[C@H]3C[C@H](O)[C@]12C")
"> 1000 µM"
>>> val("C[C@H](CCCC(C)(C)O)[C@H]1CC[C@H]2[C@@H]3[C@H](O)C=C4C[C@@H](O)CC[C@]4(C)[C@H]3CC[C@]12C [DHCS, 7α,25-Dihydroxycholesterol]")
"> 1000 µM"

Proceed to the following item.
Observed IC50 on hATX (Homo sapiens), entry `C[C@H](CCC(=O)NCCS(=O)(=O)O)[C@H]1CC[C@H]2[C@@H]3[C@H](O)C[C@@H]4C[C@H](O)CC[C@]4(C)[C@H]3C[C@H](O)[C@]12C` , equals > 1000 µM

Values from paper PMC4834639
